system: Clostridium sporogenes DSM 1664; assay: fold change of Tryptamine concentration vs plate DMSO controls (fold change (ratio)); higher = more amine produced, active = hit call of the paper (significant change in both replicates, either direction); settings: 20 µM; incubation time: 27 h, anaerobic, 37 °C;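 for the amine columns active = adjusted P below 0.05 in both replicates with a change the same way and a mean fold change under 0.8 or over 1.25; inactive = the rest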
Structures can show the parent of a compound that is named as a salt.
Choose the fitting class; nothing outside T (active), F (inactive) is accepted.

Example cases with answers are listed next.
C[C@]12CC[C@H](O)C[C@H]1CC[C@@H]1[C@@H]2C[C@@H](O)[C@]2(C)[C@@H](C3=CC(=O)OC3)CC[C@]12O = F
CCC(CC)Nc1c([N+](=O)[O-])cc(C)c(C)c1[N+](=O)[O-] = F
COP(=S)(OC)Oc1nc(Cl)c(Cl)cc1Cl = F
O=NN(CCO)CCO = F

Returns: the outcome recorded for `CC(C)N(C)S(=O)(=O)NC(=O)c1cc(-n2c(=O)cc(C(F)(F)F)n(C)c2=O)c(F)cc1Cl` in this assay.
F

Returns: the outcome recorded for `C[N+]1(C)CCCCC1` in this assay.
F

Returns: the outcome recorded for CCN(CC)CCOC(=O)C(O)(c1ccccc1)c1ccccc1 [Benactyzine hydrochloride] in this assay.
F

Returns: the outcome recorded for `CCC1(CC)C(=O)C=CNC1=O` in this assay.
F

Returns: the outcome recorded for `COc1cc2c(c(OC)c1OC)-c1ccc(OC)c(=O)cc1[C@@H](NC(C)=O)CC2` in this assay.
F

Returns: the outcome recorded for `Oc1cc(Cl)ccc1Oc1ccc(Cl)cc1Cl` in this assay.
F

Returns: the outcome recorded for `CCCCN(CCCC)SN(C)C(=O)Oc1cccc2c1OC(C)(C)C2` in this assay.
F

Returns: the outcome recorded for `O=c1c2ccccc2[se]n1-c1ccccc1` in this assay.
F

Returns: the outcome recorded for `CC(=NC#N)N(C)Cc1ccc(Cl)nc1` in this assay.
F

Returns: the outcome recorded for CC[C@@H](CO)NC(=O)[C@@H]1C=C2c3cccc4[nH]cc(c34)C[C@H]2N(C)C1 [Methylergometrine maleate] in this assay.
F

Returns: the outcome recorded for CCCC(C)(COC(N)=O)COC(=O)NC(C)C (configuration not stated) in this assay.
F

Returns: the outcome recorded for `C[C@]12CCC(=O)C(O)=C1CC[C@@H]1[C@@H]2CC[C@]2(C)C(=O)CC[C@@H]12` in this assay.
F

Returns: the outcome recorded for C[N+]12CCC(CC1)C(OC(=O)C(O)(c1ccccc1)c1ccccc1)C2 (configuration not stated) [Clidinium bromide] in this assay.
F

Returns: the outcome recorded for `Clc1ccc(C(c2ccc(Cl)cc2)C(Cl)(Cl)Cl)cc1` in this assay.
F

Returns: the outcome recorded for N[C@@H]1C[C@H]1c1ccccc1 [Tranylcypromine hydrochloride] in this assay.
F

---

test system: Ruminococcus gnavus DSM 108212; assay: fold change of 2-Phenylethylamine concentration vs plate DMSO controls (fold change (ratio)); higher = more amine produced, active = hit call of the paper (significant change in both replicates, either direction); conditions: 20 µM; incubation time: 27 h, anaerobic, 37 °C
measured property: fold change of 2-Phenylethylamine concentration
# answer = number (no unit)

Record excerpt, results attached:
CC(=O)NC1CCSC1=O (stereo unspecified) = 1.31
Cc1cccc(C)c1NC1=NCCCS1 = 1
c1ccc2c(c1)Nc1ccccc1S2 = 0.974
CNC(=O)CSP(=S)(OC)OC = 1.43

Hello, I am looking for reported fold change of 2-Phenylethylamine concentration with Ruminococcus gnavus DSM 108212 for `CN1[C@@H]2CC[C@H]1C[C@@H](OC(=O)[C@H](CO)c1ccccc1)C2` . Could you help?
1.11

Hello, I am looking for reported fold change of 2-Phenylethylamine concentration with Ruminococcus gnavus DSM 108212 for `COP(=S)(OC)Oc1nc(Cl)c(Cl)cc1Cl` . Could you help?
0.866

Hello, I am looking for reported fold change of 2-Phenylethylamine concentration with Ruminococcus gnavus DSM 108212 for CC(C1CC1)C(O)(Cn1cncn1)c1ccc(Cl)cc1 (mixture of isomers) . Could you help?
0.953

Hello, I am looking for reported fold change of 2-Phenylethylamine concentration with Ruminococcus gnavus DSM 108212 for O=C(O[C@H]1C[N+]2(CCCOc3ccccc3)CCC1CC2)C(O)(c1cccs1)c1cccs1 [Aclidinium bromide] . Could you help?
0.963

---

Entries and their fold change of Putrescine concentration values follow.
system: Escherichia coli IAI1; experiment: fold change of Putrescine concentration vs plate DMSO controls (fold change (ratio)); higher = more amine produced, active = hit call of the paper (significant change in both replicates, either direction); settings: 20 µM; incubation time: 27 h, anaerobic, 37 °C
Structures can show the parent of a compound that is named as a salt.
# answer = number (no unit)

Cc1nnc(-c2ccccc2)c(=O)n1N = 0.965

For the molecule CCCN1C[C@H](CSC)C[C@@H]2c3cccc4[nH]cc(c34)C[C@H]21 [Pergolide mesylate] , what fold change of Putrescine concentration is on record?
0.968

For the molecule CC(N)C(O)c1ccccc1 (stereo not given) [Phenylpropanolamine hydrochloride] , what fold change of Putrescine concentration is on record?
1.06

For the molecule `CCc1cccc(C)c1N(C(=O)CCl)[C@@H](C)COC` , what fold change of Putrescine concentration is on record?
1.02

For the molecule CN[C@@H]1C[C@@H](c2ccc(Cl)c(Cl)c2)c2ccccc21 [Indatraline hydrochloride] , what fold change of Putrescine concentration is on record?
0.811

---

tested on: Ruminococcus gnavus DSM 108212; assay: fold change of Tryptamine concentration vs plate DMSO controls (fold change (ratio)); higher = more amine produced, active = hit call of the paper (significant change in both replicates, either direction); conditions: 20 µM; incubation time: 27 h, anaerobic, 37 °C
Counter-ions that a name gives are not always drawn.
Entries and their fold change of Tryptamine concentration values follow.
# answer = number (no unit)

Fc1ccc([C@]2(Cn3cncn3)O[C@H]2c2ccccc2Cl)cc1 (racemic) = 0.967
CCCC(Cn1cncn1)c1ccc(Cl)cc1Cl (stereo not given) = 0.984
C=CC[C@]1(O)CC[C@H]2[C@@H]3CCC4=CCCC[C@@H]4[C@H]3CC[C@@]21C = 1.01
CC(C)CC(C)c1sccc1NC(=O)c1cn(C)nc1C(F)(F)F (stereo not given) = 1.03
CC(O)(CS(=O)(=O)c1ccc(F)cc1)C(=O)Nc1ccc(C#N)c(C(F)(F)F)c1 (stereo not given) [Bicalutamide] = 1.06

For the molecule CC(C)(C)NCC(O)c1ccccc1Cl (stereo not given) [Tulobuterol Hydrochloride] , what fold change of Tryptamine concentration is on record?
1.01

For the molecule Oc1ccc2c3c1O[C@H]1[C@@H](O)CC[C@@]4(O)[C@@H](C2)N(CC2CCC2)CC[C@]314 [Nalbuphine hydrochloride] , what fold change of Tryptamine concentration is on record?
0.957

For the molecule `COc1ccc(-c2ccccc2)cc1NNC(=O)OC(C)C` , what fold change of Tryptamine concentration is on record?
0.968

For the molecule `CC(C)N1C(=O)c2ccccc2NS1(=O)=O` , what fold change of Tryptamine concentration is on record?
0.99

For the molecule `NCC1(CC(=O)O)CCCCC1` , what fold change of Tryptamine concentration is on record?
1.03

---

tested on: Escherichia coli IAI1; test: fold change of Putrescine concentration vs plate DMSO controls (fold change (ratio)); higher = more amine produced, active = hit call of the paper (significant change in both replicates, either direction); conditions: 20 µM; incubation time: 27 h, anaerobic, 37 °C
Where a name gives a salt, the structure may show the parent alone.
measured property: fold change of Putrescine concentration
# answer = number (no unit)

Record excerpt, results attached:
Cc1ccccc1[N+](=O)[O-] = 0.996
COc1ccc(Cc2nccc3cc(OC)c(OC)cc23)cc1OC [Papaverine hydrochloride] = 0.964
c1ccc2c(c1)ccc1c3ccccc3sc21 [Benzo[b]naphtho[2,1-d]thiophene] = 1.01
COC[C@@H](NC(C)=O)C(=O)NCc1ccccc1 [Lacosamide] = 1.01
CCC1(c2cccc(O)c2)CCCCN(C)C1 (stereo not given) [Meptazinol hydrochloride] = 1.03
CCCCCCCCCCCCN=C(N)N = 1.01
CN(C)C(=O)Oc1cccc([N+](C)(C)C)c1 [Neostigmine bromide] = 0.992
C#CCN1C(=O)COc2cc(F)c(N3C(=O)C4=C(CCCC4)C3=O)cc21 = 1.01

For the compound `CCN(C)C(=O)Oc1cccc([C@H](C)N(C)C)c1` , what fold change of Putrescine concentration is on record?
0.958

For the compound CCCC(Cn1cncn1)c1ccc(Cl)cc1Cl (stereo not given) , what fold change of Putrescine concentration is on record?
1.02

For the compound CCCCCC[C@H]1C(=O)O[C@H](C)[C@H](NC(=O)c2cccc(NC=O)c2O)C(=O)O[C@@H](C)[C@@H]1OC(=O)CC(C)C [Antimycin A] , what fold change of Putrescine concentration is on record?
0.99

For the compound C=C[C@H]1CN2CC[C@H]1C[C@H]2[C@H](OC(=O)OCC)c1ccnc2ccc(OC)cc12 [Quinine ethyl carbonate] , what fold change of Putrescine concentration is on record?
1.03

For the compound `CC(=O)OCC1=C(C(=O)O)N2C(=O)[C@@H](N)[C@H]2SC1` , what fold change of Putrescine concentration is on record?
1.05
